The measurements presented in this section are drawn from paper PMC5540273.

- Tested on: AKT3
- experimental setup: concentration: 1 μM,replicates: in singlicate; n = 1;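 also: KINOMEscan kinase panel screen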

- compound: "Cc1ccn2nc(-c3ccc(F)cc3)c(-c3ccncc3)c2c1.Cl [GW457859]"
  quantity unit: "%"
  %Inh: 0
- compound: "COc1cc(Nc2nccc(N3CCC(NC(=O)c4cccc(C#N)c4)C3)n2)cc(OC)c1OC (centres unmarked) [GSK1379751]"
  quantity unit: "%"
  %Inh: 0
- compound: "CCNCC(Cc1ccccc1)NC(=O)c1cc(Br)c(-c2ccnc3[nH]ccc23)s1.Cl.Cl (centres unmarked) [GSK1383280]"
  quantity unit: "%"
  %Inh: 88
- compound: "COC(=O)c1cccc(NC(=O)NC2CCN(c3ccnc(Nc4cc(OC)c(OC)c(OC)c4)n3)C2)c1 (centres unmarked) [GSK1379767]"
  quantity unit: "%"
  %Inh: 0
- compound: "Cl.Cl.NC[C@H](CC1CCCCC1)NC(=O)c1ccc(-c2ccnc3[nH]ccc23)s1 [GSK1581428]"
  quantity unit: "%"
  %Inh: 98.1
- compound: "Cn1ccc2ncnc(Oc3ccc(NC(=O)Nc4cncc(C(F)(F)F)c4)c(Cl)c3)c21"
  quantity unit: "%"
  %Inh: 0
- compound: "CCn1c(-c2nonc2N)nc2cncc(CNC3CCNCC3)c21.Cl [SB-747651]"
  quantity unit: "%"
  %Inh: 66
- compound: "C[C@@H](Oc1cc(-n2cnc3cc(-c4ccncc4)ccc32)sc1C(N)=O)c1ccccc1Cl [GSK479719]"
  quantity unit: "%"
  %Inh: 0

* * *

- System: NEK9
- experimental setup: concentration: 1 μM,replicates: in singlicate; n = 1

- compound: "Cc1ccc(Nc2ccnc(Nc3ccc4c(c3)CS(=O)(=O)C4)n2)cc1O.Cl"
  %Inh: "27%"
- compound: "O=C(NCC1CC1)c1ccc(-c2cc(C(=O)NC3CC3)ccc2F)cc1"
  %Inh: "0%"
- compound: "COc1cc2c(Nc3ccc(NC(=O)c4ccccc4)cc3)ncnc2cc1OCCCN1CCOCC1"
  %Inh: "13%"
- compound: "CS(=O)c1ccc(-c2coc3ccc(-c4n[nH]c(=O)o4)cc23)cc1 (stereo not drawn)"
  %Inh: "0%"
- compound: "CCNCC(Cc1ccccc1)NC(=O)c1cc(Br)c(-c2ccnc3[nH]ccc23)s1.Cl.Cl (stereo not drawn)"
  %Inh: "10%"
- compound: "NC(=O)Nc1sc(-c2ccc(F)cc2)cc1C(N)=O"
  %Inh: "0%"
- compound: "Cn1cc(-c2cccc3c(N)c(C(N)=O)nnc23)cn1"
  %Inh: "0%"
- compound: "CN(c1ccc2c(c1)nc(NCc1ccc(F)cc1)n2C)c1ccnc(Nc2ccc(CS(C)(=O)=O)cc2)n1.Cl"
  %Inh: "21%"
- compound: "c1ccc(Oc2ccc(Nc3ccnc4ccc(-c5ccccn5)cc34)cc2)cc1"
  %Inh: "0%"

* * *

%Inh reference
- System: JAK2(JH1domain-catalytic)
- experimental setup: concentration: 1 μM,replicates: in singlicate; n = 1

- compound: "COc1cc2nccc(Nc3ccc(Oc4ccccc4)cc3)c2cc1OC.Cl [GI261656]"
  %Inh [%]: 100
- compound: "Cc1ccc2c(-c3ccnc(Nc4ccc(C(F)(F)F)cc4)n3)cnn2n1 [GW819776]"
  %Inh [%]: 29
- compound: "COc1ccc(Nc2nccc(N3CCC(NC(=O)c4cccc(C#N)c4)C3)n2)cc1 (stereo not shown) [GSK1379730]"
  %Inh [%]: 12
- compound: "C[C@@H](Oc1cc(-n2cnc3cc(-c4ccncc4)ccc32)sc1C(N)=O)c1ccccc1Cl [GSK479719]"
  %Inh [%]: 58
- compound: "O=C(Nc1ccccc1)c1cccc(Oc2ccc3nccn3n2)c1"
  %Inh [%]: 10
- compound: "CC(C)c1nc(-c2cccc(NS(=O)(=O)c3ccccc3)c2)c(-c2ccnc(Nc3ccc4c(c3)CN(C)CC4)n2)s1 [GSK1649598]"
  %Inh [%]: 20
- compound: "Cn1ccc2ncnc(Oc3ccc(NC(=O)Nc4cccc(C(F)(F)F)c4)c(F)c3)c21"
  %Inh [%]: 6
